# assay_target: ABHD6 (Mus musculus, UniProt Q8R2Y0)
# Construct: Brain; from tissue; host or cells: mouse brain proteome
# Sequence (Q8R2Y0 1-336): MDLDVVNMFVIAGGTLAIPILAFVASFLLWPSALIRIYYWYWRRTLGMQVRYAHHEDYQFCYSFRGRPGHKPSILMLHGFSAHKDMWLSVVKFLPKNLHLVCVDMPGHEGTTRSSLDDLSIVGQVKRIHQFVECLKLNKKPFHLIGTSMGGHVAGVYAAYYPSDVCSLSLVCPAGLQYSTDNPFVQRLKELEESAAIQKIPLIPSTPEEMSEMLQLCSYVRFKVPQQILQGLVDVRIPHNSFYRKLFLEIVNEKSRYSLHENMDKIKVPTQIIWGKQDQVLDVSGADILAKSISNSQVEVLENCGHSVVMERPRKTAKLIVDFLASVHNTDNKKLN
# assay_comment: In vitro competitive activity-based protein profiling, mouse brain proteome, ABHD6
# Format: biochemical
# measurement_context: mouse
Provide the recorded IC50 for the entries that follow.

Recorded IC50 of CC(=O)N1CC2CN(c3cc(Cl)ccc3CN3CCN(C(=O)OC(C(F)(F)F)C(F)(F)F)CC3)CC2C1 (stereo not shown) [Example 202] , please.
> 1000 nM

GET /values?readout=IC50&item= O=C(OC(C(F)(F)F)C(F)(F)F)N1CCC2(CC1)CN(Cc1c(Cl)cccc1N1CCCC1)C2 [Example 42]
100 to 1000 nM

Endpoint output: IC50 of O=C(OC(C(F)(F)F)C(F)(F)F)N1CCC2(CC1)CN(Cc1ccc(Cl)cc1N1CCOCC1)C2 [Example 39] . Value?
100 to 1000 nM

What value of IC50 has been reported for the following compound? O=C(OC(C(F)(F)F)C(F)(F)F)N1CCC2(CC1)CN(Cc1c(Cl)cccc1N1CCOCC1)C2 [Example 46]
< 100 nM

Any idea what IC50 was measured for Cc1cccc(CN2CC3(CCN(C(=O)OC(C(F)(F)F)C(F)(F)F)CC3)C2)c1 [Example 86] ?
< 100 nM

What value of IC50 has been reported for the following compound? O=C(OC(C(F)(F)F)C(F)(F)F)N1CCC2(CC1)CN(Cc1c(N3CCOCC3)cccc1C(F)(F)F)C2 [Example 43]
100 to 1000 nM

Record request: IC50 value, item CC(=O)N1CC2(CCN(c3cc(C(F)(F)F)ccc3CN3CCN(C(=O)OC(C(F)(F)F)C(F)(F)F)CC3)C2)C1 [Example 180]
> 1000 nM
